Target: muscarinic acetylcholine receptor M1 (Homo sapiens, UniProt P11229)
Construct: host or cells: CHO-k1
Sequence (P11229 whole entry): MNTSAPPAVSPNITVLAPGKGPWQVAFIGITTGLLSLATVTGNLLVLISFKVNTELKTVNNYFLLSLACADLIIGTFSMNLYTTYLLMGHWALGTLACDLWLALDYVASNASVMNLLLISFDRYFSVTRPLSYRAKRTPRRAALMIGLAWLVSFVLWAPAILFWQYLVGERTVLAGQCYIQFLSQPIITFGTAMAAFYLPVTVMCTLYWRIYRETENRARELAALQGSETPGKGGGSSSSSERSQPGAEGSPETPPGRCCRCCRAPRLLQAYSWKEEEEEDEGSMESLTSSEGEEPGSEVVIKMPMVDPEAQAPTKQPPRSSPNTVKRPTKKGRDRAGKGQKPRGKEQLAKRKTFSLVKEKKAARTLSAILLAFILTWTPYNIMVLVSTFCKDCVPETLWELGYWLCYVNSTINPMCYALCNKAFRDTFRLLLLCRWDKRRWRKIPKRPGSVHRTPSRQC
Experiment: Calcium mobilization counter-screen in CHO-M1 cells
Format: cell-based
Settings: concentration from which the calcium response is nonspecific
readout: Note: Nonspecific ≥ concentration

CC(=O)c1c(C)[nH]c(C(=O)CN2C(=O)NC(C)(c3ccc4c(c3)OCCO4)C2=O)c1C (stereo not drawn)    Nonspecific ≥ 10 μM
COc1cccc(C(=O)CN2C(=O)NC(C)(c3ccc(Cl)cc3)C2=O)c1 (stereo not drawn)    Nonspecific ≥ 10 μM

---

# reported pEC50 ± S.E.M.; entries follow
Molecular target: GPR139 (Homo sapiens)
Construct: host or cells: CHO-k1
Assay: Fluo-4 calcium mobilization assay, agonist mode, concentration-response curves in CHO-GPR139 cells
Assay type: cell-based
Settings: CHO-GPR139 cells
Enter the number alone.

CC(NC(=O)NCC(=O)NCC1CC1)c1ccc(F)cc1Cl (stereo not shown)    6.55
C=C(C)CN(CC)C(=O)CN1C(=O)NC(C)(c2cccc3ccccc23)C1=O (stereo not shown)    6.31
CC(C)COCCCNC(=O)NC(C)c1ccc(Cl)cc1Cl (stereo not shown)    6.74

Bench note: what pEC50 ± S.E.M. did CC1(c2cccc3ccccc23)NC(=O)N(CC(=O)N2CCCCCC2)C1=O (stereo not shown) show?
6.13

---

Target: GPR139 (Homo sapiens)
Construct: host or cells: CHO-k1
Assay: Fluo-4 calcium mobilization assay, agonist mode, concentration-response curves in CHO-GPR139 cells
Assay type: cell-based
Conditions: Table S1; normalized to compound 1a
readout: Emax ± S.E.M.

Below, 4 molecules whose answers are already recorded.
Cc1ccc(C2(C)NC(=O)N(Cc3cn4cc(Cl)ccc4n3)C2=O)cc1 (stereo not drawn)    89 ± 5%
O=C(NCCc1cc(Cl)c2c(c1)OCCO2)NCc1cccnc1-n1ccnc1    105 ± 8%
CC(C)OCCCNC(=O)NC(C)c1ccc2c(c1)OCO2 (stereo not drawn)    116 ± 8%
CC1(C2CC2)NC(=O)N(CC(=O)N2CCCSc3ccccc32)C1=O (stereo not drawn)    33 ± 3%

Bench note: what Emax ± S.E.M. did "CN(CC(=O)NC1CC1)C(=O)COc1ccc2oc3c(c2c1)CCCC3" show?
44 ± 4%

Could you do the same for Cc1ccc(CNC(=O)NCC2CN(CC(C)C)CCO2)cc1 (stereo not drawn) , please?
90 ± 5%

---

# reported pEC50; entries follow
Target: GPR139 (Homo sapiens)
Construct: host or cells: CHO-k1
Sequence (Q6DWJ6 1-353): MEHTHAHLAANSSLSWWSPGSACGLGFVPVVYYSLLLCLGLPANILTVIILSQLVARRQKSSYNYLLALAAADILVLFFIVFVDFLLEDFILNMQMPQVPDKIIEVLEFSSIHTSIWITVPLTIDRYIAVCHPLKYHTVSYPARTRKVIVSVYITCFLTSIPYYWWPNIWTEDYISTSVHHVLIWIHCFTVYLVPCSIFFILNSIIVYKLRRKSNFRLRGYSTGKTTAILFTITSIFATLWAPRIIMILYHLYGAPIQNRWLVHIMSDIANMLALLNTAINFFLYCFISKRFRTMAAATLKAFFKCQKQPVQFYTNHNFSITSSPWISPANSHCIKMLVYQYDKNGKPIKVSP
Test: Fluo-4 calcium mobilization assay, agonist mode, concentration-response curves in CHO-GPR139 cells
Format: cell-based
Conditions: Table S1, 11 primary screen hits; read-out: EC50
Reminder that pEC50 is minus the log10 of a molar concentration.

Below, 5 molecules whose answers are already recorded.
CC(C)OCCCNC(=O)NC(C)c1ccc2c(c1)OCO2 (stereo not drawn) [AC12]    5.43
CN(CC(=O)NC1CC1)C(=O)COc1ccc2oc3c(c2c1)CCCC3 [AC16]    4.92
O=C(NCCc1cc(Cl)c2c(c1)OCCO2)NCc1cccnc1-n1ccnc1 [AC37]    5.55
Cc1ccc(CNC(=O)NCC2CN(CC(C)C)CCO2)cc1 (stereo not drawn) [AC13]    4.68
CC1(C2CC2)NC(=O)N(CC(=O)N2CCCSc3ccccc32)C1=O (stereo not drawn) [AC11]    5.15

Now look at this entry.
Bench note: what pEC50 did Cc1ccc(C2(C)NC(=O)N(Cc3cn4cc(Cl)ccc4n3)C2=O)cc1 (stereo not drawn) [AC10] show?
5.55
